Origin of the recorded values: PubChem BioAssay (NCI)

Test system: SW-620 colon
Experiment: NCI tumour cell line growth inhibition, 48 h; in the data active means GI50 below about 0.43 µM; inactive means the rest
Response enum: active, inactive

These solved cases illustrate the format of a correct answer.
Assay outcome for `CCCCCCSSC(=S)N(CC)CC` : what was it?
inactive

Assay outcome for COc1cc(C2C3=C(COC3=O)N(CCO)c3cc4c(cc32)OCCO4)cc(OC)c1OC (stereo not drawn) : what was it?
active

***
Assay outcome for `Cc1c(C#N)cccc1[C@@H](C)Nc1nnc(C)c2cnc(N3CCOCC3)cc12` : what was it?
inactive

====

Please go through the items and note down their TGI.
System: DMS 273 small cell lung
Experiment: NCI tumour cell line growth inhibition, 48 h

Below, 2 molecules whose answers are already recorded.
Which TGI reading was recorded for the molecule Cc1ccc2nc(NC(=O)C(=O)C(C#N)c3ccc(Cl)cc3)sc2c1 (stereo not drawn) ?
> 50 µM

Which TGI reading was recorded for the molecule `CSc1cnc2ccccc2c1Sc1c[nH]c2ccccc2c1=O` ?
> 45.5 µM

***
Which TGI reading was recorded for the molecule O=C1C2C=CC(n3[nH]c(=O)n(Cc4ccccc4)c3=O)CC2C(=O)N1c1ccc(Br)cc1 (stereo not drawn) ?
> 100 µM
